Biological target: purified recombinant human insulin receptor-exon 11 (human) (UniProt P06213)
Sequence (P06213 other isoform, or with tags, fused parts or gaps limits assumed, form in doubt): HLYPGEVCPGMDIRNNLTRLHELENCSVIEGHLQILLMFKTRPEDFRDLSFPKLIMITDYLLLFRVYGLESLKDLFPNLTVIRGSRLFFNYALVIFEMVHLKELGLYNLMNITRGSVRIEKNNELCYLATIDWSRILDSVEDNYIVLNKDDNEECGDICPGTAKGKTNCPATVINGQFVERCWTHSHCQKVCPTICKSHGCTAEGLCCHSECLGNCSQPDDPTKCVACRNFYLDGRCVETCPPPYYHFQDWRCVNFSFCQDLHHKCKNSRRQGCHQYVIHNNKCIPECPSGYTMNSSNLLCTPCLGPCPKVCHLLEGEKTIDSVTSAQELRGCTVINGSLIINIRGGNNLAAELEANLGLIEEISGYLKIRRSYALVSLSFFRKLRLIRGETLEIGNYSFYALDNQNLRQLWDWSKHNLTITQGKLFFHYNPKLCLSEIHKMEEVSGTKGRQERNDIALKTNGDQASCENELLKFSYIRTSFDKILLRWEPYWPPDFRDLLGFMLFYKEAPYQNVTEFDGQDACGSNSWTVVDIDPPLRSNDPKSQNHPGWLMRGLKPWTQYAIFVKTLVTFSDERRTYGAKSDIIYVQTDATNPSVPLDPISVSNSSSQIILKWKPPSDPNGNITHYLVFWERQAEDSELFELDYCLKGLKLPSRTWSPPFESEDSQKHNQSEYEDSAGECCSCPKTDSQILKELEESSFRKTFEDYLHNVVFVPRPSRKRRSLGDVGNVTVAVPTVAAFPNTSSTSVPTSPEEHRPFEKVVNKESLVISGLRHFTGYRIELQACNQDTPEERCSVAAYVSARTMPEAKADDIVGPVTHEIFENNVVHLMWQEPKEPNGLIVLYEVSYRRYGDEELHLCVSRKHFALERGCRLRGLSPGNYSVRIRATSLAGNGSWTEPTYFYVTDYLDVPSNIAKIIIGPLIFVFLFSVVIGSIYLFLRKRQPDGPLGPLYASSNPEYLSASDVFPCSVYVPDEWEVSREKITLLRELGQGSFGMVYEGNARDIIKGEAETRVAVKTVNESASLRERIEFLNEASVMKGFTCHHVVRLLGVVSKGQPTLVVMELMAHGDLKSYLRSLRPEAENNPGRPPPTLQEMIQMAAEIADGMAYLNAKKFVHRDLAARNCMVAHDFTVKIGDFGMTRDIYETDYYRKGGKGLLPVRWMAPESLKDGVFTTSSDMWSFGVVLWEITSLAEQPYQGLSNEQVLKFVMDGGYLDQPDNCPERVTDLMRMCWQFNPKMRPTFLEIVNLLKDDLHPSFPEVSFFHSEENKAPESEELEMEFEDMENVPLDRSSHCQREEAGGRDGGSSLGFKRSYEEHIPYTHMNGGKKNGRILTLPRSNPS
Assay: competition with 125I-insulin (SPA)
Binary call on IR, binding relative to human insulin: MET from 80% upward, NOT MET beneath that.

Please review the following examples before continuing.
- substance: "single-chain insulin PAK 1740, connecting peptide VGSSSGK [B1G_B3Q_A18Q_A21G] (from UniProt P01308 25-53; P01308 90-110) (ligand)"
  studySystem: "purified recombinant human insulin receptor-exon 11 (human) (UniProt P06213)"
  category: "MET"
- substance: "single-chain insulin PAK 1869, connecting peptide VGLSSGQ [B22K_B29A_A18Q] (from UniProt P01308 25-53; P01308 90-110) (ligand)"
  studySystem: "purified recombinant human insulin receptor-exon 11 (human) (UniProt P06213)"
  category: "NOT MET"
- substance: "single-chain insulin PAK 1769033, connecting peptide PVGSSSGK [A18Q_A21G] (from UniProt P01308 25-53; P01308 90-110) (ligand)"
  studySystem: "purified recombinant human insulin receptor-exon 11 (human) (UniProt P06213)"
  category: "NOT MET"
- substance: "single-chain insulin PAK 1849, connecting peptide TGLGKGR [B29E_A18Q] (from UniProt P01308 25-53; P01308 90-110) (ligand)"
  studySystem: "purified recombinant human insulin receptor-exon 11 (human) (UniProt P06213)"
  category: "NOT MET"
- substance: "single-chain insulin PAK 1817, connecting peptide AGRGSGK [A21G] (from UniProt P01308 25-53; P01308 90-110) (ligand)"
  studySystem: "purified recombinant human insulin receptor-exon 11 (human) (UniProt P06213)"
  category: "NOT MET"
- substance: "single-chain insulin PAK 1788, connecting peptide VGLYSGK [A18Q_A21G] (from UniProt P01308 25-53; P01308 90-110) (ligand)"
  studySystem: "purified recombinant human insulin receptor-exon 11 (human) (UniProt P06213)"
  category: "MET"
- substance: "single-chain insulin PAK 1764, connecting peptide AGLGSGK [A18Q_A21G] (from UniProt P01308 25-53; P01308 90-110) (ligand)"
  studySystem: "purified recombinant human insulin receptor-exon 11 (human) (UniProt P06213)"
  category: "MET"
- substance: "single-chain insulin PAK 1769040, connecting peptide VVGSSSGK [A18Q_A21G] (from UniProt P01308 25-53; P01308 90-110) (ligand)"
  studySystem: "purified recombinant human insulin receptor-exon 11 (human) (UniProt P06213)"
  category: "NOT MET"

We now examine a further substance.
Check this substance for IR, binding relative to human insulin at or above 80%: single-chain insulin PAK 1810, connecting peptide TGLGSGQ [A18Q_A21G] (from UniProt P01308 25-53; P01308 90-110) (ligand) NOT MET
